Origin of the recorded values: ChEMBL document CHEMBL2380302

Consider the following compounds and their measured inhibition of growth at 30 µM readings.
# System: PC-3
# ASSAY: Cytotoxicity against human PC3 cells at 30 uM after 48 hrs by SRB assay
# Format: functional
# CONDITION NOTES: PC-3, 48 h, read-out: GI
Your answer is read as %, so omit the unit and give the number.

Write down the reported inhibition of growth at 30 µM (system: PC-3) of C=C(C)[C@@H]1CC[C@]2(C(=O)O)CC[C@]3(C)[C@H](CC[C@@H]4[C@@]5(C)CC[C@H](OCc6cn(-c7ccccc7CO)nn6)C(C)(C)[C@@H]5CC[C@]43C)[C@@H]12 28

Write down the reported inhibition of growth at 30 µM (system: PC-3) of C=C(C)[C@@H]1CC[C@]2(C(=O)O)CC[C@]3(C)[C@H](CC[C@@H]4[C@@]5(C)CC[C@H](OCc6cn(C7O[C@H](COC(C)=O)[C@@H](OC(C)=O)[C@H](OC(C)=O)[C@H]7OC(C)=O)nn6)C(C)(C)[C@@H]5CC[C@]43C)[C@@H]12 (some centres not stated) 7

----------
# System: PC-3
# ASSAY: Cytotoxicity against human PC3 cells at 10 uM after 48 hrs by SRB assay
# Assay type: functional
# CONDITION NOTES: PC-3, 48 h, read-out: GI
READOUT TYPE: inhibition of growth at 10 µM (%)
Your answer is read as %, so omit the unit and give the number.

COMPOUND | TARGET OR SYSTEM | READOUT TYPE | OBSERVED VALUE
C=C(C)[C@@H]1CC[C@]2(C(=O)O)CC[C@]3(C)[C@H](CC[C@@H]4[C@@]5(C)CC[C@H](OCc6cn(-c7ccc8c(c7)OCO8)nn6)C(C)(C)[C@@H]5CC[C@]43C)[C@@H]12 | PC-3 | inhibition of growth at 10 µM | 2
C=C(C)[C@@H]1CC[C@]2(C(=O)O)CC[C@]3(C)[C@H](CC[C@@H]4[C@@]5(C)CC[C@H](OCc6cn(-c7cc(I)ccc7C)nn6)C(C)(C)[C@@H]5CC[C@]43C)[C@@H]12 | PC-3 | inhibition of growth at 10 µM | 5
C=C(C)[C@@H]1CC[C@]2(C(=O)O)CC[C@]3(C)[C@H](CC[C@@H]4[C@@]5(C)CC[C@H](OCc6cn(-c7ccc(CC#N)cc7)nn6)C(C)(C)[C@@H]5CC[C@]43C)[C@@H]12 | PC-3 | inhibition of growth at 10 µM | 42
C=C(C)[C@@H]1CC[C@]2(C(=O)O)CC[C@]3(C)[C@H](CC[C@@H]4[C@@]5(C)CC[C@H](OCc6cn(-c7cccc8c(O)cccc78)nn6)C(C)(C)[C@@H]5CC[C@]43C)[C@@H]12 | PC-3 | inhibition of growth at 10 µM | 35
C=C(C)[C@@H]1CC[C@]2(C(=O)O)CC[C@]3(C)[C@H](CC[C@@H]4[C@@]5(C)CC[C@H](OCc6cn(-c7cc(C)cc(O)c7)nn6)C(C)(C)[C@@H]5CC[C@]43C)[C@@H]12 | PC-3 | inhibition of growth at 10 µM | 47
C=C(C)[C@@H]1CC[C@]2(C(=O)O)CC[C@]3(C)[C@H](CC[C@@H]4[C@@]5(C)CC[C@H](OCc6cn(C7O[C@H](COC(C)=O)[C@H](OC(C)=O)[C@H](OC(C)=O)[C@H]7OC(C)=O)nn6)C(C)(C)[C@@H]5CC[C@]43C)[C@@H]12 (some centres not stated) | PC-3 | inhibition of growth at 10 µM | 5

Next up:
Find the measured inhibition of growth at 10 µM of C=C(C)[C@@H]1CC[C@]2(C(=O)O)CC[C@]3(C)[C@H](CC[C@@H]4[C@@]5(C)CC[C@H](OCc6cn(-c7ccc(OC)cc7)nn6)C(C)(C)[C@@H]5CC[C@]43C)[C@@H]12 and report it. 5

----------
# Tested on: HCT-15
# ASSAY: Cytotoxicity against human HCT15 cells at 10 uM after 48 hrs by SRB assay
# Assay type: functional
# CONDITION NOTES: HCT-15, 48 h, read-out: GI
Label class 1 for high-side inhibition of growth at 10 µM (at or above 20%) and class 0 for low-side inhibition of growth at 10 µM (below it).

Example entries begin here.
SMILES STRUCTURE | DISCRETE LABEL
C=C(C)[C@@H]1CC[C@]2(C(=O)O)CC[C@]3(C)[C@H](CC[C@@H]4[C@@]5(C)CC[C@H](OCc6cn(-c7ccc(CC#N)cc7)nn6)C(C)(C)[C@@H]5CC[C@]43C)[C@@H]12 | class 0
C=C(C)[C@@H]1CC[C@]2(C(=O)O)CC[C@]3(C)[C@H](CC[C@@H]4[C@@]5(C)CC[C@H](OCc6cn(-c7ccc8c(c7)OCO8)nn6)C(C)(C)[C@@H]5CC[C@]43C)[C@@H]12 | class 1
C=C(C)[C@@H]1CC[C@]2(C(=O)O)CC[C@]3(C)[C@H](CC[C@@H]4[C@@]5(C)CC[C@H](OCc6cn(-c7cc(OC)c(OC)c(OC)c7)nn6)C(C)(C)[C@@H]5CC[C@]43C)[C@@H]12 | class 1
C=C(C)[C@@H]1CC[C@]2(C(=O)O)CC[C@]3(C)[C@H](CC[C@@H]4[C@@]5(C)CC[C@H](OCc6cn(-c7cccc8c(O)cccc78)nn6)C(C)(C)[C@@H]5CC[C@]43C)[C@@H]12 | class 1
C=C(C)[C@@H]1CC[C@]2(C(=O)O)CC[C@]3(C)[C@H](CC[C@@H]4[C@@]5(C)CC[C@H](OCc6cn(-c7cccc(I)c7)nn6)C(C)(C)[C@@H]5CC[C@]43C)[C@@H]12 | class 1

Is it the case that C=C(C)[C@@H]1CC[C@]2(C(=O)O)CC[C@]3(C)[C@H](CC[C@@H]4[C@@]5(C)CC[C@H](O)C(C)(C)[C@@H]5CC[C@]43C)[C@@H]12 has inhibition of growth at 10 µM reaching or exceeding 20%? class 1

Is it the case that C=C(C)[C@@H]1CC[C@]2(C(=O)O)CC[C@]3(C)[C@H](CC[C@@H]4[C@@]5(C)CC[C@H](OCc6cn(-c7ccc(OC)cc7)nn6)C(C)(C)[C@@H]5CC[C@]43C)[C@@H]12 has inhibition of growth at 10 µM reaching or exceeding 20%? class 1

Is it the case that C=C(C)[C@@H]1CC[C@]2(C(=O)O)CC[C@]3(C)[C@H](CC[C@@H]4[C@@]5(C)CC[C@H](OCc6cn(-c7ccc(C#N)cc7)nn6)C(C)(C)[C@@H]5CC[C@]43C)[C@@H]12 has inhibition of growth at 10 µM reaching or exceeding 20%? class 0

Is it the case that C=C(C)[C@@H]1CC[C@]2(C(=O)O)CC[C@]3(C)[C@H](CC[C@@H]4[C@@]5(C)CC[C@H](OCc6cn(-c7cc(I)ccc7C)nn6)C(C)(C)[C@@H]5CC[C@]43C)[C@@H]12 has inhibition of growth at 10 µM reaching or exceeding 20%? class 0

Is it the case that C=C(C)[C@@H]1CC[C@]2(C(=O)O)CC[C@]3(C)[C@H](CC[C@@H]4[C@@]5(C)CC[C@H](OCc6cn(-c7ccccc7CO)nn6)C(C)(C)[C@@H]5CC[C@]43C)[C@@H]12 has inhibition of growth at 10 µM reaching or exceeding 20%? class 1

----------
# System: PC-3
# ASSAY: Cytotoxicity against human PC3 cells at 50 uM after 48 hrs by SRB assay
# Format: functional
# CONDITION NOTES: PC-3, 48 h, read-out: GI
Consider the following compounds and their measured inhibition of growth at 50 µM readings.
Your answer is read as %, so omit the unit and give the number.

The following compounds have reported results that may help.
COMPOUND | OBSERVED VALUE
C=C(C)[C@@H]1CC[C@]2(C(=O)O)CC[C@]3(C)[C@H](CC[C@@H]4[C@@]5(C)CC[C@H](OCc6cn(-c7ccccc7CO)nn6)C(C)(C)[C@@H]5CC[C@]43C)[C@@H]12 | 52
C=C(C)[C@@H]1CC[C@]2(C(=O)O)CC[C@]3(C)[C@H](CC[C@@H]4[C@@]5(C)CC[C@H](OCc6cn(C7O[C@H](COC(C)=O)[C@H](OC(C)=O)[C@H](OC(C)=O)[C@H]7OC(C)=O)nn6)C(C)(C)[C@@H]5CC[C@]43C)[C@@H]12 (some centres undefined) | 40
C=C(C)[C@@H]1CC[C@]2(C(=O)O)CC[C@]3(C)[C@H](CC[C@@H]4[C@@]5(C)CC[C@H](OCc6cn(-c7ccc(Cl)cc7)nn6)C(C)(C)[C@@H]5CC[C@]43C)[C@@H]12 | 53
C=C(C)[C@@H]1CC[C@]2(C(=O)O)CC[C@]3(C)[C@H](CC[C@@H]4[C@@]5(C)CC[C@H](OCc6cn(-c7cc(I)ccc7C)nn6)C(C)(C)[C@@H]5CC[C@]43C)[C@@H]12 | 4
C=C(C)[C@@H]1CC[C@]2(C(=O)O)CC[C@]3(C)[C@H](CC[C@@H]4[C@@]5(C)CC[C@H](OCc6cn(-c7ccc([N+](=O)[O-])cc7)nn6)C(C)(C)[C@@H]5CC[C@]43C)[C@@H]12 | 74
C=C(C)[C@@H]1CC[C@]2(C(=O)O)CC[C@]3(C)[C@H](CC[C@@H]4[C@@]5(C)CC[C@H](OCc6cn(-c7ccc(C#N)cc7)nn6)C(C)(C)[C@@H]5CC[C@]43C)[C@@H]12 | 42
C=C(C)[C@@H]1CC[C@]2(C(=O)O)CC[C@]3(C)[C@H](CC[C@@H]4[C@@]5(C)CC[C@H](OCc6cn(-c7cc(OC)c(OC)c(OC)c7)nn6)C(C)(C)[C@@H]5CC[C@]43C)[C@@H]12 | 46
C=C(C)[C@@H]1CC[C@]2(C(=O)O)CC[C@]3(C)[C@H](CC[C@@H]4[C@@]5(C)CC[C@H](OCc6cn(-c7ccc(C(=O)c8ccccc8)cc7)nn6)C(C)(C)[C@@H]5CC[C@]43C)[C@@H]12 | 3

Next up:
Find the measured inhibition of growth at 50 µM of C=C(C)[C@@H]1CC[C@]2(C(=O)O)CC[C@]3(C)[C@H](CC[C@@H]4[C@@]5(C)CC[C@H](OCc6cn(-c7cccc8c(O)cccc78)nn6)C(C)(C)[C@@H]5CC[C@]43C)[C@@H]12 and report it. 94
